- System: SK-MEL-5
- method-description: NCI tumour cell line growth inhibition, 48 h
The source made the active and inactive calls. Cut-off read from the data, not from the text of the source: active = GI50 up to about 1.1 µM and inactive = higher.
Outcome codes: Yes = active, No = inactive

• O=C(OC1C#CCSCC#C/C=C\1)c1ccc2c(c1)C(=O)c1ccccc1C2=O (centres undefined) = No
• CC1CC2=C(C1)C(C1(C)C(=O)CC3C(C1=O)C3(C)C)C(C)C2=O (centres undefined) = No
• O=C1CC2(CCNCC2)C(=O)N1N1CCCCC1 = No
• CCCCCCCCCCOC1C(C(C)OCCCN(C)C)OC2OC3(CCCCC3)OC21 (centres undefined) = No
• CC1OC(O)CC(N(C)C)C1O.CC1OC(O)CCC1O.CCC1CC(O)c2c(O)c3c(c(O)c2C1O)C(=O)c1cccc(O)c1C3=O (centres undefined) = Yes
• C[P+]1(c2ccccc2)CCCCC1 = No
• Cc1ccc(/N=N/c2ccc(O)c(CN(C)C)c2)cc1C = No
• COc1ccc2c(c1)c1c(n2CCN2CCOCC2)-c2ccccc2CC1 = No
• O=C1/C(=C/c2n[nH]cc2-c2ccc(Cl)cc2)C(=O)N(c2ccccc2)C1c1ccccc1 (centres undefined) = No
• Cn1ncc(NCCn2cnc3c2c(=O)n(C)c(=O)n3C)c(Cl)c1=O = No
• CC(=O)NC1=CC(=O)C=C(Cl)C1=O = No
• COc1cc2c(c(OC)c1OC)-c1ccc(SC)c(=O)cc1[C@@H](NC(=O)c1ccc(C#N)cc1)CC2 = Yes
• CCOC(=O)/C(=C\c1cn(C(C)=O)c2ccccc12)P(C)(=O)OCC (centres undefined) = No
• Cc1ccc(C)c(C2NC(=O)c3ccccc3N2)c1 (centres undefined) = Yes
• COc1ccc2c(O)c1-c1c(OC)ccc(c1O)SSc1ccc(OC)c(c1O)-c1c(OC)ccc(c1O)SS2 = No
• CC(=O)Nc1ccc2c3c(cc(O)c2c1)N(C(=O)CCCCCC(=O)N1CC(CCl)c2c1cc(O)c1cc(NC(C)=O)ccc21)CC3CCl (centres undefined) = Yes
• Cc1c2cnccc2c(C)c2c1c1ccccc1n2CCCN = Yes
• O=C1C(Cl)N(c2cccc([N+](=O)[O-])c2)C1c1c[nH]c2ccccc12 (centres undefined) = No
• CC1OC(OC2C(O[C@@H]3C[C@@H]4CC[C@@H]5[C@H](CC[C@]6(C)[C@@H]7[C@H](C[C@@H]56)O[C@]5(CC[C@@H](C)CO5)[C@H]7C)[C@@]4(C)C[C@H]3O)OC(CO)C(OC3OC(CO)C(O)C(O)C3O)C2O)C(O)C(O)C1O (some centres undefined) = No
• O=C(CCCN1CCC2(CC1)OC(=O)N(c1ccccc1)C2=O)c1ccccc1 = No
• CCOP(=O)(OCC)/C(C#N)=C/c1cccn1C = No
• CC(=O)OC(C)c1cc2c(s1)C(=O)c1sccc1C2=O (centres undefined) = Yes
• CSCC[C@@H](NC(=O)[C@H](CC(C)C)NC(=O)C(Cc1cnc[nH]1)NC(=O)CNC(=O)[C@@H](NC(=O)[C@H](C)NC(=O)[C@H](Cc1c[nH]c2ccccc12)NC(=O)[C@H](CCC(N)=O)NC(=O)[C@@H](N)CC(N)=O)C(C)C)C(N)=O (some centres undefined) = No
• C=CCOC(=O)C1=C(CCC[C@@H](C)O[Si](C)(C)C(C)(C)C)N=C(N)N2[C@H](CCO)CC[C@@H]12 = No
• C/C=C(\C)c1cc(O)c(C)c2c1Oc1cc(O)c(Cl)c(C)c1C(=O)O2 = No
• N/C(=N\Nc1cccc(Cl)c1)c1cccnc1 = No
• Cc1nc(Nc2ccccc2)sc1C(=O)NNC(N)=O = No
• N#C/C(=C\c1ccccc1)C(=O)Nc1nnc(-c2ccccc2)o1 = No
• Oc1ccc2ccccc2c1/N=N/c1cc(Cl)ccc1Cl = No
• O=C1OC[C@H]2[C@@H]1[C@H]1O[C@@H]2C2=C(CCC2)C1=O = No
• Cc1cccc(C)c1NC(=O)CCC(=O)NC(N)=S = No
• CC(=O)N1C(CCc2ccccc2)CC(C)(C=O)C1Cc1ccc(O[Si](C(C)C)(C(C)C)C(C)C)cc1 (centres undefined) = No
• CCC12C=CCN3CC[C@]4(C(=C(C(=O)OC)[C@@H]1Nc1ncnc5c1ncn5C1OC(COC(C)=O)C(OC(C)=O)C1OC(C)=O)Nc1ccccc14)C32 (some centres undefined) = No
• C=CCCC12CCCC(=O)C1Sc1ccc3ccccc3c12 (centres undefined) = No
• Cc1cc(S(=O)(=O)Nc2nc(-c3ccccn3)n[nH]2)c(S)cc1Cl = No
• COc1c(C2(c3ccc(F)cc3)SCCCS2)c(=O)c1=O = No
• CC(=O)N(CN1C(=O)CCC1C(=O)O)c1ccccc1Cl (centres undefined) = No
• O=c1n(CCCN2CCN(c3cccc(Cl)c3)CC2)nc2n1-c1ccc3ccccc3c1SC2 = No
• OC[C@@H]1CC#C/C=C\C#CC[C@@H]1CO = No
